target.system: KRas^WT (Homo sapiens)
Construct: Biotinylated KRas (corresponding to amino acids 1-169, produced at Accelegan Inc.); biotin (biotinylated); purchased Accelegan Inc
Sequence (P01116 1-169 isoform P01116-2): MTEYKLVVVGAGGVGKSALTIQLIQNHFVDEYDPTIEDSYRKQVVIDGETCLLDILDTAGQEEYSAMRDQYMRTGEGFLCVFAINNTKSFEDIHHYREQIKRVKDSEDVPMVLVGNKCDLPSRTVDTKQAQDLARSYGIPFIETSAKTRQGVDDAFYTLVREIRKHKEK
method.notes: KRas binding assay (TR-FRET tracer displacement), KRas WT
stated.conditions: TR-FRET tracer displacement, KRas WT
Could you please report measured IC50 for the items listed next?
Give bare numbers, in nM.

compound	IC50, nM
Oc1cc(Cl)c(C2CC2)c(-c2ncc3c(N4CCC[C@]5(C4)C[C@H](O)C5)nc(OCC45CCCN4CCC5)nc3c2F)c1 [Example 742]	3
Cc1cc2[nH]nnc2c(-c2ncc3c(N4CCCn5nc(C(=O)N(C)C)cc5C4)nc(OCC45CCCN4CCC5)nc3c2F)c1C [Example 839]	3780
Oc1cc(Cl)c(C2CC2)c(-c2ncc3c(N4C[C@H]5C[C@@H](C4)[C@H](O)C5)nc(OCC45CCCN4CCC5)nc3c2F)c1 [Example 738]	11

Now look at this entry.
Specify IC50 for Cc1cccc2c(-c3ncc4c(N5C[C@@H]6C[C@H](C5)[C@H](O)C6)nc(OC[C@@]56CCCN5C[C@H](F)C6)nc4c3F)cc(O)cc12 [Example 747] , system KRas^WT (Homo sapiens).
107
